Catalogue of Ki readings, one per entry.
assayed system: GST-Bcl-2 (Homo sapiens (Human), UniProt P10415)
Sequence (P10415 whole entry): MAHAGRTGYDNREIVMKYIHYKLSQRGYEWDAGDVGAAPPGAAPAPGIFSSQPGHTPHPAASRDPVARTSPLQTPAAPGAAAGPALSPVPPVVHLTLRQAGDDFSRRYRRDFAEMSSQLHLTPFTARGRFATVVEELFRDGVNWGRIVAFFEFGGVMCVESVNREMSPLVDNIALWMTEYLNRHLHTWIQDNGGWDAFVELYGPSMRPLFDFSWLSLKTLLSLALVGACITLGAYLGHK
protocol: Time Resolved-Fluorescence Resonance Energy Transfer (TR-FRET) Bcl-2 binding assay
condition info: GST-Bcl-2 1 nM, F-Bak peptide probe 100 nM, Tb-anti-GST antibody 1 nM; Ki by Wang's equation
Protocol: Determination of the utility of compounds having Formula (I) as binders to and inhibitors of anti-apoptotic Bcl-2 proteins was performed using the Time Resolved-Fluorescence Resonance Energy Transfer (TR-FRET) Assay. Tb-anti-GST antibody was purchased from Invitrogen (Catalog No. PV4216). Representative compounds were serially diluted in dimethyl sulfoxide (DMSO) starting at 50 μM (2× starting concentration; 10% DMSO) and 10 μL were transferred into a 384-well plate. […]
Give the quantity in nM, number only.

Solved entries:
| compound | measured |
| --- | --- |
| CN(C)CCCNc1ccc(S(=O)(=O)NC(=O)c2ccc(N3CCN(CC4=C(c5ccc(Cl)cc5)CC(C)(C)CC4)CC3)cc2Oc2ccccc2F)cc1[N+](=O)[O-] [Example 137] | 0.021 |
| CC1(C)CCC(CN2CCN(c3ccc(C(=O)NS(=O)(=O)c4ccc(NCC5CCOCC5)c([N+](=O)[O-])c4)c(Oc4cc5cc[nH]c5cc4F)c3)CC2)=C(c2ccc(Cl)cc2)C1 [Example 238] | 0.124 |

Proceed to the following item.
Q: Given the entry CC1(C)CCC(CN2CCN(c3ccc(C(=O)NS(=O)(=O)c4ccc(NCC5CCOCC5)c([N+](=O)[O-])c4)c(Oc4cncc(NC(=O)OC(C)(C)C)c4)c3)CC2)=C(c2ccc(Cl)cc2)C1 [Example 278] , report its measured Ki.
A: 40

====

assayed system: GST-Bcl-2 (Homo sapiens (Human), UniProt P10415)
protocol: Time Resolved-Fluorescence Resonance Energy Transfer (TR-FRET) Bcl-2 binding assay
condition info: GST-Bcl-2 1 nM, F-Bak peptide probe 100 nM, Tb-anti-GST antibody 1 nM; Ki by Wang's equation
# Ki values compiled below

Recorded Ki, per entry:
| smiles notation | assayed system | Ki |
| --- | --- | --- |
| CC1(C)CCC(CN2CCN(c3ccc(C(=O)NS(=O)(=O)c4ccc(NCC5CCOCC5)c([N+](=O)[O-])c4)c(Oc4cnc(N)c(C(N)=O)c4)c3)CC2)=C(c2ccc(Cl)cc2)C1 | GST-Bcl-2 (Homo sapiens (Human), UniProt P10415) | 2.84 nM |
| CC1(C)CCC(CN2CCN(c3ccc(C(=O)NS(=O)(=O)c4ccc(NCC5CCOCC5)c([N+](=O)[O-])c4)c(Oc4ccc(O)nc4)c3)CC2)=C(c2ccc(Cl)cc2)C1 | GST-Bcl-2 (Homo sapiens (Human), UniProt P10415) | 17.2 nM |

Q: Give the reported Ki for CC1(C)CCC(CN2CCN(c3ccc(C(=O)NS(=O)(=O)c4ccc(NC5CCN(C6CCOCC6)CC5)c([N+](=O)[O-])c4)c(Oc4ccnc(N)c4)c3)CC2)=C(c2ccc(Cl)cc2)C1 (system: GST-Bcl-2 (Homo sapiens (Human), UniProt P10415)).
A: 0.516 nM

Q: Value wanted: Ki (GST-Bcl-2 (Homo sapiens (Human), UniProt P10415)) of entry CN1CCC(Nc2ccc(S(=O)(=O)NC(=O)c3ccc(N4CCN(CC5=C(c6ccc(Cl)cc6)CCCC5)CC4)cc3Oc3ccccc3Cl)cc2[N+](=O)[O-])CC1
A: 0.034 nM

Q: Find Ki (GST-Bcl-2 (Homo sapiens (Human), UniProt P10415)) for the entry C#Cc1cc(S(=O)(=O)NC(=O)c2ccc(N3CCN(CC4=C(c5ccc(Cl)cc5)CC(C)(C)CC4)CC3)cc2Oc2cc3cc[nH]c3cc2F)cnc1OCC1CCOCC1
A: 4.53 nM
